Biological target: Estrogen receptor (Mus musculus) (UniProt O08537+P19785)
Sequence (O08537 whole entry, looked up): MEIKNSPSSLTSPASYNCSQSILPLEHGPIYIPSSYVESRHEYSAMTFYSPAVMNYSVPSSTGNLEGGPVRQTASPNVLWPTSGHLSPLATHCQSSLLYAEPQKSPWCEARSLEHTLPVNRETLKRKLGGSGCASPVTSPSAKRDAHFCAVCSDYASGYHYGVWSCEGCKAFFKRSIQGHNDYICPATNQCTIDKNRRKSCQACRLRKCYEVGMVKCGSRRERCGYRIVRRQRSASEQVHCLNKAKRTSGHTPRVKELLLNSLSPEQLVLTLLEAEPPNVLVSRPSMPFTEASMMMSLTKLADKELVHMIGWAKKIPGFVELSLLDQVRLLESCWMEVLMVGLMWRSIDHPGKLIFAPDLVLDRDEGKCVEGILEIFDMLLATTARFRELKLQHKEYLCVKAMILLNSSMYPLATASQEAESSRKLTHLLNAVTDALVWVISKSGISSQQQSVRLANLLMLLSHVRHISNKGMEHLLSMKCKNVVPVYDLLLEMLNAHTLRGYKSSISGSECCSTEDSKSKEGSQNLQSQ
Sequence (P19785 whole entry, looked up): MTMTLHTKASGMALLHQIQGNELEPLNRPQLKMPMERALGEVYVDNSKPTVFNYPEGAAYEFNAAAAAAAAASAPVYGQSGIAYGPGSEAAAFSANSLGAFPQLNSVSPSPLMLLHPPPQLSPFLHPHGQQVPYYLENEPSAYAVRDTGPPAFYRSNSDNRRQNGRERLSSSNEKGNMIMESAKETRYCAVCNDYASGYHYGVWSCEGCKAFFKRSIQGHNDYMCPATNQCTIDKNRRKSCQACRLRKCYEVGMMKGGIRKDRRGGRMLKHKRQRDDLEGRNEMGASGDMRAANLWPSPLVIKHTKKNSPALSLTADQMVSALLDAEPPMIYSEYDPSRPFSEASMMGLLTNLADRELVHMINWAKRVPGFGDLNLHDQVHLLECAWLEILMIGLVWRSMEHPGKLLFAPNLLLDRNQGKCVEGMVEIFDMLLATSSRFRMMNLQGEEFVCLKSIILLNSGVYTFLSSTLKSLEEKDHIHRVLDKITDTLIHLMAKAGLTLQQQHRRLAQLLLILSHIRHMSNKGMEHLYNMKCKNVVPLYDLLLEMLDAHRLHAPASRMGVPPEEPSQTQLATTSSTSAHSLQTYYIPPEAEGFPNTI
Assay: Uterotrophic effect in mice at 100 ug dose
Assay type: functional, tissue-based
Set-up: unit not given here
Settings: Uterus
ENDPOINT LABEL: Effect
No unit in the answer, only the number.

MOLECULE | ENDPOINT LABEL | NUMERIC READOUT
C/C(=C(/C)c1ccc(O)cc1)c1ccc(O)cc1 [DIMETHYLSTILBESTROL] | Effect | 35.9

// next entry
# molecule `C[C@H](c1cccc(O)c1)[C@@H](C)c1cccc(O)c1` ; its Effect = 12.6

---

Molecular target: Estrogen receptor (Mus musculus) (UniProt O08537+P19785)
Assay: Uterotrophic effect in mice at 1 ug dose
Format: functional, tissue-based
Parameters: unit not given here
Settings: Uterus
# Effect >= 20 gives condition met, anything below gives condition not met

SMILES DATA | TARGET | CLASS
Oc1cccc(/C(=C(/c2cccc(O)c2)C(F)(F)F)C(F)(F)F)c1 | Estrogen receptor (Mus musculus) (UniProt O08537+P19785) | condition met
Oc1cccc([C@H]([C@H](c2cccc(O)c2)C(F)(F)F)C(F)(F)F)c1 | Estrogen receptor (Mus musculus) (UniProt O08537+P19785) | condition not met
C[C@H](c1ccc(O)cc1)[C@@H](C)c1ccc(O)cc1 | Estrogen receptor (Mus musculus) (UniProt O08537+P19785) | condition met
Oc1ccc(/C(=C(/c2ccc(O)cc2)C(F)(F)F)C(F)(F)F)cc1 | Estrogen receptor (Mus musculus) (UniProt O08537+P19785) | condition met

Task: // inclusive: Effect at least 20? input: `Oc1ccc([C@H]([C@H](c2ccc(O)cc2)C(F)(F)F)C(F)(F)F)cc1`
Result: condition met
